Test Description: Tmax in NMRI mouse at 20 mg/kg, iv
Type: ADME, organism-based
Parameters: dose 20 mg/kg, route intravenous
Applied Conditions: in vivo
Measured Parameter: Tmax (min)

>>> df
                                   compound  data_value
0  O=C(/C=C/c1cccnc1)NCCCCC1CCN(C(=O)c2ccccc2)CC1 [DAPORINAD]          15

* * *

IC50 values by entry
Test System: Nicotinamide phosphoribosyltransferase (Homo sapiens, UniProt P43490)
Sequence (P43490 whole entry): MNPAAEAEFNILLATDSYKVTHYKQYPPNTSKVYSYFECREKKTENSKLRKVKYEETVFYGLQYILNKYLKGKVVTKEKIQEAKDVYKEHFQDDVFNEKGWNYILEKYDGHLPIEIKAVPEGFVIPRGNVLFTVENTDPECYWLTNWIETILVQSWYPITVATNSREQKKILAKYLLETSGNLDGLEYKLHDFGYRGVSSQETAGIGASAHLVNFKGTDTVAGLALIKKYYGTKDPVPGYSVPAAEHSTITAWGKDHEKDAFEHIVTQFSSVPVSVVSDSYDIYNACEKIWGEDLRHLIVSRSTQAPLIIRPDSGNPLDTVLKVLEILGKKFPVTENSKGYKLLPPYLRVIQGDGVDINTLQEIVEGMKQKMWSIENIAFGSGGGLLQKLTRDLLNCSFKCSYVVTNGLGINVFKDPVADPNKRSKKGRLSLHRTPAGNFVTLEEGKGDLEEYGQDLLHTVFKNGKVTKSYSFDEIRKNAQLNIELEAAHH
Test Description: Inhibition of NAMPT in human HepG2 cells using [14C]-nicotinamide/PRPP as substrate assessed as formation of [14C]-nicotinamide mononucleotide after 1 hr by liquid scintillation counting analysis
Measured Parameter: IC50 (nM)

In [3]: df
Out[3]:
                                   molecule  measured_parameter  quantity_unit  data_value
0  N#C/N=C(\NCCCCCCC(=O)N(OCCN1CCOCC1)C1CCCCC1)Nc1ccncc1                IC50             nM         0.2
1  N#C/N=C(\NCCCCCCCC(=O)N(Cc1ccccc1)OCCN1CCOCC1)Nc1ccncc1                IC50             nM         4.4
2  O=C1C(=O)C(Nc2ccncc2)C1NCCCCCCCS(=O)(=O)N(OCCN1CCOCC1)C1CCCCC1 (stereo not drawn)                IC50             nM         3.6
